Where these numbers come from: the supplement of paper PMC12783771

B1: library; numbered along this chain (parent)
chain: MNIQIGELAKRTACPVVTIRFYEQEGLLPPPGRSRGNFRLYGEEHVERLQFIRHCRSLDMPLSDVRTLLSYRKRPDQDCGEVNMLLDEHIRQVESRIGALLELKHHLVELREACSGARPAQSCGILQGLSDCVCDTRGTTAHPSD

# Variants of: B1
# test_details: sfGFP reporter fluorescence (15 h) (µM FITC); higher = stronger transcriptional activation
# test_conditions: library round: Round 0; ligand: 30 µM Zn
Is sfGFP reporter fluorescence at least 0.5? Then Fulfilled. If not, Not fulfilled.

// known answers, use as guide
R39G = Not fulfilled
V82W = Not fulfilled

Now let's try a different one.
Decide: is the reported value of sfGFP reporter fluorescence for K104W equal to or greater than 0.5?
Fulfilled
